Recorded values, source ChEMBL document CHEMBL4196155.

System: Oryctolagus cuniculus
Method Notes: Reduction in hypertonic saline solution-induced elevated intraocular pressure in New Zealand White rabbit at 1 mM dosed topically before hypertonic saline solution injection measured after 60 mins
Assay type: functional, organism-based
Active and inactive are the calls of the source. The calls are words filed in the database; no cut-off is given here.
Assay Readout: Activity

Smiles Text: NC(=O)c1cccc(-c2cccc(OC(=O)NC3CCCCC3)c2)c1
Assay System: Oryctolagus cuniculus
Observed: Active

Smiles Text: CC(=O)NCCc1c[nH]c2ccc(OCCCCCCNC(=O)Oc3cccc(-c4ccccc4)c3)cc12
Assay System: Oryctolagus cuniculus
Observed: Active

====

Assay System: Melatonin receptor type 1A (Homo sapiens)
Sequence (P48039 whole entry): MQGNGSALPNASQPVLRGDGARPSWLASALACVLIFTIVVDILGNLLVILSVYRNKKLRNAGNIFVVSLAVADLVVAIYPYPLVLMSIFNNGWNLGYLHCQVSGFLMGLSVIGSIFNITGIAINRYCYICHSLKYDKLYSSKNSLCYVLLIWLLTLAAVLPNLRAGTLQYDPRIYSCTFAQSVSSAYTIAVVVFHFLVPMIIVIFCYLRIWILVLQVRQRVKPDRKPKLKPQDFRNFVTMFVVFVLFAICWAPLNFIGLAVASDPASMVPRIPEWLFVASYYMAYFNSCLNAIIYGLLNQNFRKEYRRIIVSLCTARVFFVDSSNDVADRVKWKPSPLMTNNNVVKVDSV
Method Notes: Intrinsic agonist activity at human MT1 receptor expressed in […] NIH/3T3 cell membranes assessed as induction of G protein activation incubated for 30 mins by [35S]GTPgammaS binding assay relative to melatonin
Format: functional
Field 'label' (enum: T / F). Set to T when Intrinsic activity is strictly under 0.7; else F.

Task item: Quick check: Intrinsic activity of CC(=O)NCCN(C)c1cccc(OCCCCCCNC(=O)Oc2cccc(-c3cccc(O)c3)c2)c1 under 0.7?
Reply: F

Task item: Try this compound next: CC(=O)NCCc1c(Br)[nH]c2ccc(OCCCCCCNC(=O)Oc3cccc(-c4ccccc4)c3)cc12
Reply: F

Task item: Try this compound next: CC(=O)NCCN(C)c1cccc(OCCCCCCCCNC(=O)Oc2cccc(-c3ccccc3)c2)c1
Reply: F

Task item: Try this compound next: CC(=O)NCCN(C)c1cccc(OCCCCCCN)c1
Reply: T
